# assay.method.text: Human HepG2 cell viability assay in 384 well format
# Format: toxicity, cell-based
# Design: dose 125 nL, time 70.5 hour; concentration not given beside the values
# recorded.conditions: HepG2 cells, read-out: Inhibition
recorded.metric: cytotoxicity at 70.5 h (%)
The answer is to be given in %; state only the numeric part.

Below, each entry is followed by its recorded cytotoxicity at 70.5 h result.
>  <compound>
CN1CCO[C@@H]2CN(C(=O)COc3cccc(Cl)c3)C[C@@H]2C1

>  <recorded.value>
4.28

$$$$
>  <compound>
CC(C#N)NS(=O)(=O)c1cccc(C(C)C)c1 (centres undefined)

>  <recorded.value>
-15.4

$$$$
>  <compound>
Cc1ccc(Cl)cc1C(=O)N1CCC2(CC1)c1ccccc1[C@@H](N)[C@@H]2O

>  <recorded.value>
15.9

$$$$

Query compound follows.
Reported cytotoxicity at 70.5 h for CCOC1CCCN(C(=O)c2[nH]nc(C)c2Br)C1 (centres undefined) was -11.5

* * *

Below, each entry is listed with its recorded cytotoxicity at 70.5 h.
# assay.method.text: Human HepG2 cell viability assay in 384 well format
# Assay type: toxicity, cell-based
# Parameters: dose 125 nL, time 70.5 hour; concentration not given beside the values
# recorded.conditions: HepG2 cells, read-out: Inhibition
Answer with a number only, understood to be in %.

Completed entries (count: 4):
>  <molecule>
CC(NC(=O)CN1C=Nc2ccccc2S1(=O)=O)C1CC1 (stereo unspecified)

>  <cytotoxicity at 70.5 h / %>
11

$$$$
>  <molecule>
Cc1occc1CNC(=O)NCCN(C)C1CCCC1

>  <cytotoxicity at 70.5 h / %>
-0.13

$$$$
>  <molecule>
CC(C)OCCOCc1cccc(NC(=O)N2CCCC(O)C2)c1 (stereo unspecified)

>  <cytotoxicity at 70.5 h / %>
-9.87

$$$$
>  <molecule>
CNC(=O)CS(=O)(=O)Cc1ccc(OC)c(F)c1

>  <cytotoxicity at 70.5 h / %>
-11.9

$$$$

Consider CS(=O)(=O)NC1CCCN(C(=O)Nc2cccnc2N2CCCC2)C1 (stereo unspecified) . Its measured cytotoxicity at 70.5 h is 0.921

Note to self: cytotoxicity at 70.5 h recorded for O=S(=O)(c1cc(F)ccc1F)N1CCCC1c1ccco1 (stereo unspecified) was -6.01

* * *

# assay.method.text: Human HepG2 cell viability assay in 384 well format
# Type: toxicity, cell-based
# Parameters: dose 125 nL, time 70.5 hour; concentration not given beside the values
# recorded.conditions: HepG2 cells, read-out: Inhibition
Entries and their cytotoxicity at 70.5 h values follow.
The response must be a number in % with no trailing unit.

These solved cases illustrate the format of a correct answer.
>  <compound>
O=C(O)c1ccccc1CN1CCCC(Cc2ccn[nH]2)C1 (centres undefined)

>  <recorded.value>
-8.52

$$$$
>  <compound>
Cn1ccnc1CN1CCN(CCOc2cccc(C#N)c2)CC1

>  <recorded.value>
-0.0786

$$$$
>  <compound>
COc1ccnc(N2CCN(C(=O)c3csc(C(C)C)n3)CC2)n1

>  <recorded.value>
9.24

$$$$
>  <compound>
Cc1nsc(N2CCN(CC(=O)N(C3CC3)C(C)C3CC3)CC2)n1 (centres undefined)

>  <recorded.value>
13.6

$$$$
>  <compound>
CCc1n[nH]c(C2CN(C(=O)c3ccnc(C4CC4)n3)CCO2)n1 (centres undefined)

>  <recorded.value>
-5.63

$$$$

Input O=C(NCC(CO)Cc1cccc(OC(F)(F)F)c1)c1cnccn1 (centres undefined) . Output cytotoxicity at 70.5 h: 19.2

Value of cytotoxicity at 70.5 h reported for the compound `O=C(c1sccc1Br)N(Cc1cccnc1)C1CC1` is -13.1

Consider CC(NC(=O)CSCC#N)c1ccc(F)cc1 (centres undefined) . Its measured cytotoxicity at 70.5 h is 10.1

Entry `Cc1cc(C)nc(N2CCC(c3ccnc(N(C)C)n3)CC2)n1` , cytotoxicity at 70.5 h reported as -3.9

The reported value for `O=C(c1ccoc1)N1C[C@@H]2CN(c3ncccn3)C[C@@H]2C1` in terms of cytotoxicity at 70.5 h is -4.89

Kindly note the recorded cytotoxicity at 70.5 h for `CCn1c(CN2CCCC2)nnc1C1CCN(Cc2cccnc2)CC1` , which is 19.5

// recorded cytotoxicity at 70.5 h for CC(Cn1cccn1)NC(=O)NCCc1cnn(C)c1 (centres undefined) : -16.3

* * *

# assay.method.text: Human HepG2 cell viability assay in 384 well format
# Type: toxicity, cell-based
# Parameters: dose 125 nL, time 70.5 hour; concentration not given beside the values
# recorded.conditions: HepG2 cells, read-out: Inhibition
Form field: cytotoxicity at 70.5 h (one value per entry).
Answer format: numeric, % implied, no suffix.

>  <molecule>
c1ccc2oc(N3CCCCC3Cn3cncn3)nc2c1 (stereo not drawn)

>  <recorded.value>
25.6

$$$$
>  <molecule>
CC1CCN(CCCNC(=O)Nc2cc3c(cc2Br)OCCO3)CC1

>  <recorded.value>
-0.325

$$$$
>  <molecule>
Cc1ccc(N2CC3(COCCN(Cc4cnn(C)c4)C3)OCC2=O)s1 (stereo not drawn)

>  <recorded.value>
0.295

$$$$

Record summary for `O=C([C@H]1C[C@H]2OCC[C@H]2N(C(=O)c2ccccn2)C1)N1CCCCO1` : reported cytotoxicity at 70.5 h = -6.44

Sure, the documented cytotoxicity at 70.5 h for `Cc1cccc(CN2C(=O)CCC23CCNCC3)n1` is -9.48

Item: CC(C)Oc1cccc(C(O)CNC(=O)CCc2ccncc2)c1 (stereo not drawn) | cytotoxicity at 70.5 h: -5.8

Given item O=C(C1CCCOC1)N1CCCc2ccccc21 (stereo not drawn) , the value recorded as its cytotoxicity at 70.5 h is -4.78

// sample `Cn1nc2c(cc1=O)CN(Cc1nnc(-c3ccco3)o1)CC2` , its cytotoxicity at 70.5 h was -3.38

Please fill in: cytotoxicity at 70.5 h reported for `COCCN(CCOC)Cc1c(C)nc2ccccc2c1O` = 5.31

What the record says about N#Cc1cccnc1NCc1cccc(C(=O)NCC2CCCCO2)c1 (stereo not drawn) : cytotoxicity at 70.5 h is -10.4

Kindly note the recorded cytotoxicity at 70.5 h for Cc1nc(C)n(C2CCCN(C(=O)c3sccc3C)C2)n1 (stereo not drawn) , which is -5.74

cytotoxicity at 70.5 h recorded for this molecule, `CC(=O)N(C)C1CCN(C(=O)NCCc2cc(F)ccc2F)CC1` , is -13.7

// field: cytotoxicity at 70.5 h; key: CN(C)C(C(=O)NCC(F)(F)F)c1cccc(F)c1 (stereo not drawn) ; value = -2.03

Looking up Cn1nc(C2CCNC2)c2c(C(=O)NCC(F)(F)F)cc(C3CC3)nc21 (stereo not drawn) , I found its cytotoxicity at 70.5 h recorded as -7.49

Noted for `CSc1nc2cc(C)n(CC(=O)N3CCCC3)c2c(=O)n1CC(C)C` : its cytotoxicity at 70.5 h reads -5.31

For record Cc1cc(C)n(CC2CCCN2CCc2ccncc2)n1 (stereo not drawn) the listed cytotoxicity at 70.5 h is 17.9

* * *

# assay.method.text: Human HepG2 cell viability assay in 384 well format
# Assay type: toxicity, cell-based
# Parameters: dose 125 nL, time 70.5 hour; concentration not given beside the values
# recorded.conditions: HepG2 cells, read-out: Inhibition
recorded.metric: cytotoxicity at 70.5 h (%)
Your answer is read as %, so omit the unit and give the number.

>  <compound>
Cc1cc(C)n(CC2CCCN2C(=O)c2cnn(C)c2C2CC2)n1 (centres undefined)

>  <cytotoxicity at 70.5 h (%)>
-11.8

$$$$
>  <compound>
COc1cc(CNC(=O)Nc2nnc(C(C)C)s2)ccc1O

>  <cytotoxicity at 70.5 h (%)>
-10.5

$$$$
>  <compound>
Cc1c(C(=O)NCC(C)(C)S(C)(=O)=O)cccc1-c1ccccn1

>  <cytotoxicity at 70.5 h (%)>
-16.9

$$$$

# cytotoxicity at 70.5 h (compound: `O=C(Cc1ccc2c(c1)CCCC2)NCCc1ccccn1` ) is -5.18

* * *

Form field: cytotoxicity at 70.5 h (one value per entry).
# assay.method.text: Human HepG2 cell viability assay in 384 well format
# Assay type: toxicity, cell-based
# Parameters: dose 125 nL, time 70.5 hour; concentration not given beside the values
# recorded.conditions: HepG2 cells, read-out: Inhibition
Numeric answer only, unit % assumed.

The examples below pair each entry with its known result.
>  <chemical.string>
O=C1NCCN1C1CCN(c2ccnc(-c3ccccc3)n2)CC1

>  <recorded.metric>
cytotoxicity at 70.5 h

>  <unit.label>
%

>  <recorded.value>
-7.99

$$$$
>  <chemical.string>
COCc1cc(CC2(NCc3ccccc3Cl)COC2)no1

>  <recorded.metric>
cytotoxicity at 70.5 h

>  <unit.label>
%

>  <recorded.value>
-3.62

$$$$

Query molecule follows.
The recorded cytotoxicity at 70.5 h for entry `CCc1cc(N(C)Cc2ccncn2)n2nccc2n1` equals 13.1
